This collection of values is drawn from ChEMBL document CHEMBL4699547.

pIC50 values by entry
# ASSAY_SYSTEM: Acetylcholinesterase (Homo sapiens, UniProt P22303)
# Sequence (P22303 whole entry): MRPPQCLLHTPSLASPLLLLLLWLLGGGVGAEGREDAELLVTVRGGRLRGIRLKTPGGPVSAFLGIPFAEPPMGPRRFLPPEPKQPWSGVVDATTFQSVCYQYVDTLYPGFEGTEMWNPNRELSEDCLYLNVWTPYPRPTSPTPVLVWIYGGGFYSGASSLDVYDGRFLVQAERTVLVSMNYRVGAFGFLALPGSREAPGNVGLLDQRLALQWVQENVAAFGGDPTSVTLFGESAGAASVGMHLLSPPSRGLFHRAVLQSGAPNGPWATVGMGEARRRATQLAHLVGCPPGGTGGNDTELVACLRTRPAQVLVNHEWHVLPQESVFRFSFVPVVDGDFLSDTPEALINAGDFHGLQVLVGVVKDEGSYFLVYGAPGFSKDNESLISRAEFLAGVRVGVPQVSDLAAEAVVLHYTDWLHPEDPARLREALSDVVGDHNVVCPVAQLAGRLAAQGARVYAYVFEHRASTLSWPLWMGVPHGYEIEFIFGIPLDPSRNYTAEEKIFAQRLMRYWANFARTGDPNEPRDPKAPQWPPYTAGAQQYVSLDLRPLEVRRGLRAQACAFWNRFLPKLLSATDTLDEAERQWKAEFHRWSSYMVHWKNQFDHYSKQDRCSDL
# PROTOCOL_NOTES: Inhibition of human AChE by Ellman's method
Expect pIC50 as a plain number equal to -log10 of the molar concentration.

Example compounds with recorded pIC50:
c1ccc(CNC2CCN(Cc3ccccc3)C2)cc1 (stereo not drawn) ... 5.95
FC(F)(F)c1ccc(/C=N\C2CCN(Cc3ccccc3)C2)cc1 (stereo not drawn) ... 5.98

Moving on to the next compound.
Short answer please: pIC50, Acetylcholinesterase (Homo sapiens, UniProt P22303), entry FC(F)(F)Oc1ccc(/C=N\C2CCN(Cc3ccccc3)C2)cc1 (stereo not drawn) 6.06
